Method Notes: neutral chemical: log K is the mean of log D over all measurements at the three pH values (D shown independent of pH, paired t-test); sd is the table's stddev. PDMS sheets cleaned by Soxhlet with ethyl acetate; batch shaking method with a mixture of all chemicals at several PDMS-mass to water-volume ratios and spiked levels; vials shaken on an orbital shaker at room temperature in the dark, sampled at two equilibration times; PDMS extracts and water quantified by LC-HRMS (Orbitrap); D from the slope of C_PDMS on C_w or their ratio
Assay Setup: PDMS (polydimethylsiloxane silicone sheet); phosphate buffer at three target pH values (the paper's methods)

Compound	log K PDMS/w (neutral species)
CC(C)(C)Nc1nc(N)nc(Cl)n1	1.296 log units; D and K as the pape
CN(C)c1ccc(C(=O)c2ccc(N(C)C)cc2)cc1	2.057 log units; D and K as the pape
COC(=O)C(c1ccccc1Cl)N1CCc2sccc2C1 (stereo not drawn)	0.9169 log units; D and K as the pape
CN(C)C(=O)Nc1ccc(Cl)c(Cl)c1	1.409 log units; D and K as the pape
Cc1ccc(C=C2C(=O)C3(C)CCC2C3(C)C)cc1 (stereo not drawn)	3.848 log units; D and K as the pape
CCN(CC)C(=O)c1cccc(C)c1	1.611 log units; D and K as the pape
N#Cc1nn(-c2c(Cl)cc(C(F)(F)F)cc2Cl)c(N)c1S(=O)(=O)C(F)(F)F	2.329 log units; D and K as the pape
CCNc1nc(N)nc(Cl)n1	0.1961 log units; D and K as the pape
NC(=O)Nc1ccc(Cl)c(Cl)c1	0.6359 log units; D and K as the pape
CN(C)S(=O)(=O)c1ccc(N)cc1	-0.02333 log units; D and K as the pape
CCCCCCCCCCCC(=O)NCC(C)O (stereo not drawn)	3.231 log units; D and K as the pape
Cc1c(C=O)c(=O)n(-c2ccccc2)n1C	-0.2009 log units; D and K as the pape
CCCN(CCOc1c(Cl)cc(Cl)cc1Cl)C(=O)NC=O	2.487 log units; D and K as the pape
CCCCCCCCCCCC(=O)N(CCO)CCO	2.753 log units; D and K as the pape
CCOC(=O)C(C)(C)Oc1ccc(Cl)cc1	1.711 log units; D and K as the pape
Cc1cccc(C)c1N(Cn1cccn1)C(=O)CS(C)=O (stereo not drawn)	0.5949 log units; D and K as the pape
CC(C)Nc1nc(N)nc(Cl)n1	0.4139 log units; D and K as the pape
CCCCOCCOCCOCc1cc2c(cc1CCC)OCO2	3.661 log units; D and K as the pape
CC(C)(C)NC(=O)[C@H]1CC[C@H]2[C@@H]3CC[C@H]4NC(=O)C=C[C@]4(C)[C@H]3CC[C@]12C	2.638 log units; D and K as the pape
CN(C)C(=O)Nc1ccccc1	0.4555 log units; D and K as the pape
Cc1c(C(C)C)c(=O)n(-c2ccccc2)n1C	1.593 log units; D and K as the pape
O=C(/C=C/C=C/c1ccc2c(c1)OCO2)N1CCCCC1	3.135 log units; D and K as the pape
CC=CC(=O)N(CC)c1ccccc1C (mixture of isomers)	2.056 log units; D and K as the pape
CC(C)OC(=O)C(C)(C)Oc1ccc(C(=O)c2ccc(Cl)cc2)cc1	4.415 log units; D and K as the pape
CC(C)c1ccc2sc3ccccc3c(=O)c2c1	4.227 log units; D and K as the pape
CNC(=O)/C(=N/OC)c1ccccc1COc1cc(C)ccc1C	2.396 log units; D and K as the pape
O=C1CC2(CCCCC2)CN1	1.277 log units; D and K as the pape

====

Method Notes: PDMS sheets cleaned by Soxhlet with ethyl acetate; batch shaking method with a mixture of all chemicals at several PDMS-mass to water-volume ratios and spiked levels; vials shaken on an orbital shaker at room temperature in the dark, sampled at two equilibration times; PDMS extracts and water quantified by LC-HRMS (Orbitrap); D from the slope of C_PDMS on C_w or their ratio; value is the mean over that pH's experiments (individual experiments in the SI's concentrations table), sd is the table's stdev
Assay Setup: PDMS (polydimethylsiloxane silicone sheet); phosphate buffer at three target pH values (the paper's methods); pH 7.4
Metric Name: log D PDMS/w (apparent distribution ratio at the stated pH)

Compound	Observed Value
[O-][n+]1cccc2ccccc21	1.11 log units; D and K as the pape
Nc1nc2ccccc2[nH]1	-0.58 log units; D and K as the pape
O=C1Nc2ccc(Cl)cc2C(C#CC2CC2)(C(F)(F)F)O1 (stereo not shown)	2.884 log units; D and K as the pape
CCNc1ccc2c(C)cc(=O)oc2c1	1.863 log units; D and K as the pape
CCN(CC)c1ccc2c(C)cc(=O)oc2c1	2.797 log units; D and K as the pape
CC(C)c1ccc2sc3ccccc3c(=O)c2c1	4.252 log units; D and K as the pape
NC(=O)/N=C1\SCCN1Cc1ccc(Cl)nc1	0.3692 log units; D and K as the pape

====

Method Notes: PDMS sheets cleaned by Soxhlet with ethyl acetate; batch shaking method with a mixture of all chemicals at several PDMS-mass to water-volume ratios and spiked levels; vials shaken on an orbital shaker at room temperature in the dark, sampled at two equilibration times; PDMS extracts and water quantified by LC-HRMS (Orbitrap); D from the slope of C_PDMS on C_w or their ratio; value is the mean over that pH's experiments (individual experiments in the SI's concentrations table), sd is the table's stdev
Assay Setup: PDMS (polydimethylsiloxane silicone sheet); phosphate buffer at three target pH values (the paper's methods); pH 7.4
Metric Name: log D PDMS/w (apparent distribution ratio at the stated pH)

Compound	Observed Value
c1ccc2[nH]c(-c3cscn3)nc2c1	1.69 log units; D and K as the pape
Clc1ccc(COC(Cn2ccnc2)c2ccc(Cl)cc2Cl)c(Cl)c1 (stereo not shown)	4.581 log units; D and K as the pape
c1ccc2c(c1)[nH]c1ccncc12	2.315 log units; D and K as the pape
Cc1c(C=O)c(=O)n(-c2ccccc2)n1C	-0.1813 log units; D and K as the pape
CC(C)(C#N)c1cc(Cn2cncn2)cc(C(C)(C)C#N)c1	1.994 log units; D and K as the pape
c1ccc2nc3ccccc3cc2c1	2.315 log units; D and K as the pape
CCCN(CCOc1c(Cl)cc(Cl)cc1Cl)C(=O)NC=O	2.482 log units; D and K as the pape
Clc1cccc(Cl)c1NC1=NCCN1	1.56 log units; D and K as the pape
NC(=O)Nc1ccc(Cl)c(Cl)c1	0.6543 log units; D and K as the pape
Cc1ccc(C=C2C(=O)C3(C)CCC2C3(C)C)cc1 (stereo not shown)	3.912 log units; D and K as the pape
Oc1c(Br)cc(Cl)cc1Cc1cc(Cl)cc(Br)c1O	2.256 log units; D and K as the pape
c1ccc2sc(N3CCOCC3)nc2c1	1.897 log units; D and K as the pape
Clc1ccc2n[nH]nc2c1	0.79 log units; D and K as the pape

====

Method Notes: PDMS sheets cleaned by Soxhlet with ethyl acetate; batch shaking method with a mixture of all chemicals at several PDMS-mass to water-volume ratios and spiked levels; vials shaken on an orbital shaker at room temperature in the dark, sampled at two equilibration times; PDMS extracts and water quantified by LC-HRMS (Orbitrap); D from the slope of C_PDMS on C_w or their ratio; value is the mean over that pH's experiments (individual experiments in the SI's concentrations table), sd is the table's stdev
Assay Setup: PDMS (polydimethylsiloxane silicone sheet); phosphate buffer at three target pH values (the paper's methods); pH 3
Metric Name: log D PDMS/w (apparent distribution ratio at the stated pH)

Compound	Observed Value
CN(C)S(=O)(=O)c1ccc(N)cc1	-0.06167 log units; D and K as the pape
CCc1cccc(C)c1N(C(=O)C(=O)O)C(C)C(=O)O (stereo not shown)	1.878 log units; D and K as the pape
COCCOCCOCCOCCOC	0.372 log units; D and K as the pape
CC(C)OC(=O)C(C)(C)Oc1ccc(C(=O)c2ccc(Cl)cc2)cc1	4.526 log units; D and K as the pape
CC(C)c1ccc2sc3ccccc3c(=O)c2c1	4.266 log units; D and K as the pape
CCCCc1nc(Cl)c(CO)n1Cc1ccc(-c2ccccc2-c2nn[nH]n2)cc1	0.8893 log units; D and K as the pape
CN(C)C(=O)Nc1ccc(Cl)c(Cl)c1	1.406 log units; D and K as the pape
COC(=O)Nc1nc2ccc(C(=O)c3ccccc3)cc2[nH]1	1.465 log units; D and K as the pape
CCN(CC)C(=O)c1cccc(C)c1	1.611 log units; D and K as the pape
CC(C)(C#N)c1cc(Cn2cncn2)cc(C(C)(C)C#N)c1	2.047 log units; D and K as the pape
CC=CC(=O)N(CC)c1ccccc1C (mixture of isomers)	2.104 log units; D and K as the pape
O=C(O)CCC(=O)c1ccc(F)cc1	-0.02167 log units; D and K as the pape
Clc1cccc(Cl)c1NC1=NCCN1	0.07 log units; D and K as the pape
